Target: GST-hLGK1 (human liver type GK) (Homo sapiens, UniProt P35557)
Construct: made in house; host or cells: Escherichia coli BL21
Sequence (P35557 1-464 isoform P35557-3): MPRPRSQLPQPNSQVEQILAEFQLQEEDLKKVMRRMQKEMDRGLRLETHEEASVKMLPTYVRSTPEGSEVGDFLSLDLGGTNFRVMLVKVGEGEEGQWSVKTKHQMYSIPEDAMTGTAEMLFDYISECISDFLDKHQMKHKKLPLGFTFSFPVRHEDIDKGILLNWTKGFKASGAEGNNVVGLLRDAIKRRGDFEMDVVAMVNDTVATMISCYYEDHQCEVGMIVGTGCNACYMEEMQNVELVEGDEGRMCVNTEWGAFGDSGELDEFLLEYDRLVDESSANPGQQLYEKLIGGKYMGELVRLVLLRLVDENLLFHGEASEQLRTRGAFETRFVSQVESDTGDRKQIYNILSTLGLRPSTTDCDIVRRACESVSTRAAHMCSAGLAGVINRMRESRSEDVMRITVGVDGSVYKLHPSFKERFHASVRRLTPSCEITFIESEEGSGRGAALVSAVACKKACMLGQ
Assay: Determination of GK activity value (Mant-ATP/Mant-ADP capillary electrophoresis)
Format: biochemical
Details: GK activation; GST-hLGK1, D-glucose, 37° C. for 60 min
EC50 strictly less than 200 nM = 1. Otherwise -1.

Consider the following illustrative entries.
smilesInput: CCn1cc(N(C)S(=O)(=O)c2cccs2)c2[nH]c(C3=NCCS3)cc21
class: -1
--
smilesInput: CCOC(=O)c1cc2c([nH]1)c(N(C)S(=O)(=O)c1cccs1)cn2Cc1ccccc1
class: -1
--
smilesInput: Cc1sc2cc(C3=NCCS3)[nH]c2c1N(C)S(=O)(=O)c1cccs1
class: 1
--
smilesInput: CCOC(=O)c1cc2nc(C)n(Cc3ccccc3)c2[nH]1
class: -1

Let us examine a further case.
Qu. Is EC50 of CC(=O)N1CCC2(CC1)CN=C(c1cc3sc(C)c(N(C)S(=O)(=O)c4cccs4)c3[nH]1)S2 strictly below 200 nM?
Ans. 1
